Entry source: patent US20070190061A1

Target: HMW-MAA-specific idiotypic mAb 763.74
Test: peptide concentration giving 50% inhibition of biotinylated mAb 763.74 binding to Colo38 cells, cell ELISA
pIC50: −log10 of the molar value.
Recorded metric: pIC50

Binder	pIC50
ARSNYVGYHVRWYFD [peptide PMK2-23H3 (anti-id mAb MK2-23 H3-derived peptide)]	6.06
IRSGDEVHYHVTAGPRW [peptide PHMW-MAA.D2.7 (HMW-MAA-derived peptide)]	6.05
